Tested on: SNB-75
Assay Summary: Cytotoxicity, standard NCI assay with sulforhodamine B, 96 h
Format: cell-based, human
Test Conditions: Homo sapiens, SNB-75, 96 h, read-out: Cytotoxicity (nM, ± SD) SNB-75
Reported IC50 is given for each of the following molecules.
Measured Property: IC50 (nM)

{"columns": ["Molecule", "Uom", "Observed Value"],
 "data": [
  ["C/C(=C\\c1csc(CN)n1)[C@@H]1C[C@@H]2N(CCO)[C@]2(C)CCC[C@H](C)[C@H](O)[C@@H](C)C(=O)C(C)(C)[C@@H](O)CC(=O)O1 (some centres unmarked)", "nM", 130],
  ["C/C(=C\\c1csc(N)n1)[C@@H]1C[C@@H]2N(CCO)[C@]2(C)CCC[C@H](C)[C@H](O)[C@@H](C)C(=O)C(C)(C)[C@@H](O)CC(=O)O1 (some centres unmarked)", "nM", 280],
  ["CSc1nc(/C=C(\\C)[C@@H]2C[C@@H]3N(CC4CC4)[C@]3(C)CCC[C@H](C)[C@H](O)[C@@H](C)C(=O)C(C)(C)[C@@H](O)CC(=O)O2)cs1 (some centres unmarked)", "nM", 16],
  ["CSc1nc(/C=C(\\C)[C@@H]2C[C@@H]3N(CCN)[C@]3(C)CCC[C@H](C)[C@H](O)[C@@H](C)C(=O)C(C)(C)[C@@H](O)CC(=O)O2)cs1 (some centres unmarked)", "nM", 23],
  ["CSc1nc(/C=C(\\C)[C@@H]2C[C@@H]3N[C@]3(C)CCC[C@H](C)[C@H](O)[C@@H](C)C(=O)C(C)(C)[C@@H](O)CC(=O)O2)cs1", "nM", 11]
]}

====

Test system: MCF-7
Assay Summary: Cytotoxicity, standard NCI assay with sulforhodamine B, 96 h
Test Conditions: Homo sapiens, MCF7, 96 h, read-out: cytotoxicity (GI50, nM ± SD) MCF-7
Measured Property: GI50 (nM)

{"columns": ["Compound", "System Name", "Measured Property", "Observed Value"],
 "data": [
  ["C/C(=C\\c1cc(C(F)(F)F)nn1CCNC(=O)OC(C)(C)C)[C@@H]1C[C@@H]2O[C@]2(C)CCC[C@H](C)[C@H](O)[C@@H](C)C(=O)C(C)(C)[C@@H](O)CC(=O)O1", "MCF-7", "GI50", 4400],
  ["C/C(=C\\c1cc(C(F)(F)F)n(-c2ccc(N)cc2)n1)[C@@H]1C[C@@H]2O[C@]2(C)CCC[C@H](C)[C@H](O)[C@@H](C)C(=O)C(C)(C)[C@@H](O)CC(=O)O1", "MCF-7", "GI50", 900],
  ["C/C(=C\\c1ccn(-c2ccc(N)c(C(F)(F)F)c2)n1)[C@@H]1C[C@@H]2O[C@]2(C)CCC[C@H](C)[C@H](O)[C@@H](C)C(=O)C(C)(C)[C@@H](O)CC(=O)O1", "MCF-7", "GI50", 3],
  ["C/C(=C\\c1csc(C)n1)[C@@H]1C[C@@H]2O[C@]2(C)CCC[C@H](C)[C@H](O)[C@@H](C)C(=O)C(C)(C)[C@@H](O)CC(=O)N1 [Ixab, ixabepilone, reference compound]", "MCF-7", "GI50", 7],
  ["C/C(=C\\c1ccn(-c2ccc(N)cc2F)n1)[C@@H]1C[C@@H]2O[C@]2(C)CCC[C@H](C)[C@H](O)[C@@H](C)C(=O)C(C)(C)[C@@H](O)CC(=O)O1", "MCF-7", "GI50", 14]
]}

Just for reference, patent US10874646B2 is where these values come from.
